target: Human immunodeficiency virus type 1 protease (Human immunodeficiency virus 1, UniProt Q72874); assay: Inhibitory activity against HIV-I protease.
measurement_kind: pKi
// field semantics: pKi = negative decimal log of concentration (mol/L)

{"compound": "C[C@H](NC(=O)OC(C)(C)C)C(=O)Nc1cccc(C(c2c(O)c3c(oc2=O)CCCCCC3)C2CC2)c1 (stereo not given in full)", "pKi": 8.16}

Could you tell me which pKi is on file for CC(C)(C)OC(=O)N[C@H](Cc1cnc[nH]1)C(=O)Nc1cccc(C(c2c(O)c3c(oc2=O)CCCCCC3)C2CC2)c1 (stereo not given in full) ?
7.96

Repeat for the following compound: CCC(c1ccccc1)c1c(O)c2c(oc1=O)CCCCCCC2 (stereo not given)
7.23

Repeat for the following compound: C[C@@H](NC(=O)OC(C)(C)C)C(=O)Nc1cccc(C(c2c(O)c3c(oc2=O)CCCCCC3)C2CC2)c1 (stereo not given in full)
7.49

Repeat for the following compound: CC(C)(C)OC(=O)NCCCC(=O)Nc1cccc(C(c2c(O)c3c(oc2=O)CCCCCC3)C2CC2)c1 (stereo not given)
7.85

Repeat for the following compound: CC(C)(C)OC(=O)NCC(=O)Nc1cccc(C(c2c(O)c3c(oc2=O)CCCCCC3)C2CC2)c1 (stereo not given)
8.26

Repeat for the following compound: O=C(Nc1cccc(C(c2c(O)oc3c(c2=O)CCCCCC3)C2CC2)c1)c1ccccc1 (stereo not given)
7.38

Repeat for the following compound: O=c1c2c(oc(O)c1C(c1ccccc1)C1CC1)CCCCCC2 (stereo not given)
7.02

Repeat for the following compound: CCCCC1CCCCCCc2c1oc(O)c(C(c1ccccc1)C1CC1)c2=O (stereo not given)
7.51
